- assay-explanation: Wnt3a reporter signal inhibition, confirmation, counter-screen for Gli-SUFU antagonist project, Wnt-LIGHT cells, luminescence, single concentration (AID 651995)
- assay-conditions: Wnt3a-driven luciferase reporter, at 6.25 µM, hits give high values
Hit rate of the full screen: of about 2,500 compounds, about 480 (19%) were called active. Only a sample is shown.
Can you tell me inhibition for the items I'm about to list?
# unit: % | format: bare number

Ask: Form field: reported inhibition of CC(C)Oc1ccc(/C=N/NC(=O)c2nnn(-c3nonc3N)c2CN(C)C2CCCCC2)cc1
Reply: -59.5

Ask: And what about the compound COC(=O)c1ccc(CSc2nnc(N)s2)o1 ?
Reply: -4.51

Ask: Please answer likewise for O=c1c2ccccc2nc2n1C(CSCc1cccc(C(F)(F)F)c1)CS2 (stereo not given)
Reply: 24.2

Ask: Proceed to O=C1/C(=C\c2cccnc2)CN(Cc2ccccc2)C/C1=C\c1cccnc1
Reply: -9.32

Ask: Thanks! And C=CCOC(=O)C1=C[C@@H](c2ccc3c(c2)OCO3)C[C@@H](OCCCCO)O1 ?
Reply: -7.34

* * *

- assay-explanation: Wnt3a reporter signal inhibition, confirmation, counter-screen for Gli-SUFU antagonist project, Wnt-LIGHT cells, luminescence, single concentration (AID 651995)
- assay-conditions: Wnt3a-driven luciferase reporter, at 6.25 µM, hits give high values
About 480 (19%) of roughly 2,500 compounds were called active. Only a sample is shown.
For each of the compounds below, state its inhibition.
The response must be a number in % with no trailing unit.

Ask: # input compound: O=C(Cn1cc(C(=O)C2CC2)c2ccccc21)Nc1ccccc1Cl ; wanted: its inhibition
Reply: 26.6

Ask: Would you kindly repeat that for Nc1ccc(C(=O)N2CCN(S(=O)(=O)c3ccc(Cl)cc3)CC2)cc1[N+](=O)[O-] ?
Reply: -13.1

Ask: Next compound up: CCC(Cc1ccccc1)NC(=O)C1CCCCC1 (stereo not drawn)
Reply: -4.89

Ask: # repeat for Cc1cc(C)c(SCCc2ccncc2)c(C)c1
Reply: 32

Ask: Could you do the same for COc1cccc2cc(C(N)=O)/c(=N\NC(=O)c3ccccc3)oc12 , please?
Reply: -3.11

Ask: Field entry: COc1ccc(Cn2c(-c3ccc(Cl)cc3)c[n+]3ccccc23)cc1
Reply: -74.3

Ask: Proceed to CC1(C)Cc2ccccc2/C(=C/C(=O)c2ccccc2)N1
Reply: 9.91

Ask: Follow-up entry: Cc1ccc(S(=O)(=O)N(Cc2cc3ccccc3[nH]c2=O)CC2CCCO2)cc1 (stereo not drawn)
Reply: 1.8

Ask: Again, but for CC(=O)c1c(C)[nH]c(C(=O)OCC(=O)Nc2sc3c(c2C#N)CCCC3)c1C
Reply: -44.3

Ask: Same question for C/C(=N\NC(=O)Cc1ccc(Cl)cc1)c1ccccn1 please.
Reply: 48.9

Ask: Cool, now CN(C)c1cc[n+](Cc2ccccc2)cc1
Reply: 12.4

Ask: Quick one: O=C1/C(=C/c2ccc(F)cc2)SC(=S)N1NS(=O)(=O)c1ccccc1
Reply: 12.4

Ask: // query: CCC1CCCCN1CCCNC(=O)Cn1nc(-c2ccccc2)ccc1=O (stereo not drawn)
Reply: 12.7

Ask: // query: O=C(CN1CCN(S(=O)(=O)c2cc(Cl)ccc2Cl)CC1)c1ccc(O)c(O)c1
Reply: 73.7

Ask: Try the compound CC(C)Oc1ccc(CN2CCC(n3nccc3NC(=O)c3cccnc3)CC2)cc1
Reply: -35.7

Ask: Same read-out for CC[n+]1c(C)n(-c2ccccc2)c2ccc(NC(C)=O)cc21 ?
Reply: 43.4

Ask: Note, next up: Cc1ccc(C(=O)C[n+]2cc(-c3ccccc3)n3c2CCCCC3)cc1
Reply: -0.91

Ask: Also, CCc1c(C)[nH]c(=S)c(C#N)c1C please.
Reply: -19.5

These data points were gathered from PubChem BioAssay AID651995.
